# SYSTEM TESTED: Mouse GPR40 (Mus musculus, UniProt Q76JU9)
# Construct: expressed in transfected cells
# Sequence (Q76JU9 whole entry): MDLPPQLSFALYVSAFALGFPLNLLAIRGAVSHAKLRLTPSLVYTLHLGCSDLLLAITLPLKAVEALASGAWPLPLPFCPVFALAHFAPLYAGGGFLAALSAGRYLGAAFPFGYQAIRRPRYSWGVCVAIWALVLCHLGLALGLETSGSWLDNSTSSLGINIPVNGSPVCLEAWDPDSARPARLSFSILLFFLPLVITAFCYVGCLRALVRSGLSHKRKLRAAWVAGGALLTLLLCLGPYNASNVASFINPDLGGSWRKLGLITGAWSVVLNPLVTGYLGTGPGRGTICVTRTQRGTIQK
# PROCEDURE DETAILS: EC50 by FLIPR calcium assay in CHO cells stably expressing mouse GPR40
# Format: cell-based

[
  {
    "SMILES CODE": "CC/C=C\\C/C=C\\C/C=C\\CCCCCCCC(=O)O",
    "UNITS TEXT": "µM",
    "EC50": 3.6
  }
]

====

# SYSTEM TESTED: Mouse GPR40 (Mus musculus)
# Construct: expressed in transfected cells
# PROCEDURE DETAILS: EC50 by FLIPR calcium assay in CHO cells stably expressing mouse GPR40
# Type: cell-based
# ASSAY CONDITIONS: intracellular calcium, FLIPR, stable CHO line; read-out: EC50 Mouse GPR40
pEC50: −log10 of the molar value.
ASSAY ENDPOINT: pEC50

[
  {
    "COMPOUND": "CCCCCCCCCCCCCCCC(=O)O [Palmitic acid (C16), Palmitic acid]",
    "RESULT MODIFIER": "=",
    "VALUE REPORTED": 5.34
  },
  {
    "COMPOUND": "CCCCC/C=C\\C/C=C\\CCCCCCCC(=O)O [Linoleic acid (C18:2), Linoleic acid]",
    "RESULT MODIFIER": "=",
    "VALUE REPORTED": 5.54
  },
  {
    "COMPOUND": "CCCCC/C=C\\C/C=C\\C/C=C\\C/C=C\\CCCC(=O)O [Arachidonic acid (C20:4), Arachidonic acid]",
    "RESULT MODIFIER": "=",
    "VALUE REPORTED": 5.27
  },
  {
    "COMPOUND": "CCCCCCCCCCCC(=O)O [Lauric acid (C12), Lauric acid]",
    "RESULT MODIFIER": "=",
    "VALUE REPORTED": 5.25
  },
  {
    "COMPOUND": "CCCCCCCC/C=C/CCCCCCCC(=O)O [Elaidic acid (C18:1), Elaidic acid]",
    "RESULT MODIFIER": "=",
    "VALUE REPORTED": 5.19
  },
  {
    "COMPOUND": "CCCCCCCCCCCCCCCCCC(=O)O [Stearic acid (C18), Stearic acid]",
    "RESULT MODIFIER": "<",
    "VALUE REPORTED": 3.52
  },
  {
    "COMPOUND": "CCCCCCCCCC(=O)O [Capric acid (C10), Capric acid]",
    "RESULT MODIFIER": "<",
    "VALUE REPORTED": 4.00
  },
  {
    "COMPOUND": "CCCCCCCCCCCCCC(=O)O [Myristic acid (C14), Myristic acid]",
    "RESULT MODIFIER": "=",
    "VALUE REPORTED": 5.22
  },
  {
    "COMPOUND": "CCCCCCCC/C=C\\CCCCCCCC(=O)O [Oleic acid (C18:1), Oleic acid]",
    "RESULT MODIFIER": "=",
    "VALUE REPORTED": 5.57
  },
  {
    "COMPOUND": "CC/C=C\\C/C=C\\C/C=C\\C/C=C\\C/C=C\\CCCC(=O)O [Eicosapentaenoic acid (C20:5), Eicosapentaenoic acid]",
    "RESULT MODIFIER": "=",
    "VALUE REPORTED": 5.31
  },
  {
    "COMPOUND": "CCCCC/C=C\\C/C=C\\C/C=C\\CCCCC(=O)O [γ-Linolenic acid (C18:3), γ-Linolenic acid]",
    "RESULT MODIFIER": "=",
    "VALUE REPORTED": 5.28
  },
  {
    "COMPOUND": "CC/C=C\\C/C=C\\C/C=C\\C/C=C\\C/C=C\\C/C=C\\CCC(=O)O [Docosahexaenoic acid (C22:6)]",
    "RESULT MODIFIER": "=",
    "VALUE REPORTED": 4.80
  }
]

====

# SYSTEM TESTED: Rat GPR40 (Rattus norvegicus, UniProt Q8K3T4)
# Construct: expressed in transfected cells
# Sequence (Q8K3T4 whole entry): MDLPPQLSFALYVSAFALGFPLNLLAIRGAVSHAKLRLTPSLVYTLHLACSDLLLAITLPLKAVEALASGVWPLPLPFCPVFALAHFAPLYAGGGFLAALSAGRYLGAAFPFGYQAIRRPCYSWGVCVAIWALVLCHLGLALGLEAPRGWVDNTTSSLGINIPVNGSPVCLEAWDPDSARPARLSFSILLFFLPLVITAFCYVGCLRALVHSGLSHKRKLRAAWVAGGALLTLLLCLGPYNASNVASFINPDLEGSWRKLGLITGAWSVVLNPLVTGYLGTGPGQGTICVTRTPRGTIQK
# PROCEDURE DETAILS: EC50 by FLIPR calcium assay in CHO cells stably expressing rat GPR40
# Type: cell-based
# ASSAY CONDITIONS: intracellular calcium, FLIPR, stable CHO line; read-out: EC50 Rat GPR40
pEC50: −log10 of the molar value.

[
  {
    "MOLECULE": "CCCCC/C=C\\C/C=C\\CCCCCCCC(=O)O [Linoleic acid (C18:2), Linoleic acid]",
    "RESULT MODIFIER": "=",
    "pEC50": 5.39
  },
  {
    "MOLECULE": "CCCCCCCC/C=C\\CCCCCCCC(=O)O [Oleic acid (C18:1), Oleic acid]",
    "RESULT MODIFIER": "=",
    "pEC50": 5.47
  },
  {
    "MOLECULE": "CCCCCC(=O)O [Caproic acid (C6), Caproic acid]",
    "RESULT MODIFIER": "<",
    "pEC50": 3.52
  },
  {
    "MOLECULE": "CCCCCCCCCCCCCCCCCC(=O)O [Stearic acid (C18), Stearic acid]",
    "RESULT MODIFIER": "<",
    "pEC50": 3.52
  },
  {
    "MOLECULE": "CCCCCCCCCC(=O)O [Capric acid (C10), Capric acid]",
    "RESULT MODIFIER": "<",
    "pEC50": 4.00
  },
  {
    "MOLECULE": "CCCCCCCC(=O)O [Caprylic acid (C8), Caprylic acid]",
    "RESULT MODIFIER": "<",
    "pEC50": 3.52
  },
  {
    "MOLECULE": "CC/C=C\\C/C=C\\C/C=C\\C/C=C\\C/C=C\\CCCC(=O)O [Eicosapentaenoic acid (C20:5), Eicosapentaenoic acid]",
    "RESULT MODIFIER": "=",
    "pEC50": 5.01
  },
  {
    "MOLECULE": "CCCCC/C=C\\C/C=C\\C/C=C\\C/C=C\\CCCC(=O)O [Arachidonic acid (C20:4), Arachidonic acid]",
    "RESULT MODIFIER": "=",
    "pEC50": 5.10
  }
]

====

Entries and their pEC50 values follow.
# SYSTEM TESTED: Rat GPR40 (Rattus norvegicus)
# Construct: expressed in transfected cells
# PROCEDURE DETAILS: EC50 by FLIPR calcium assay in CHO cells stably expressing rat GPR40
# Type: cell-based
# ASSAY CONDITIONS: intracellular calcium, FLIPR, stable CHO line; read-out: EC50 Rat GPR40
pEC50: −log10 of the molar value.
ASSAY ENDPOINT: pEC50

[
  {
    "SMILES CODE": "CC/C=C\\C/C=C\\C/C=C\\C/C=C\\C/C=C\\C/C=C\\CCC(=O)O",
    "SYSTEM TESTED": "Rat GPR40 (Rattus norvegicus)",
    "VALUE REPORTED": 4.89
  },
  {
    "SMILES CODE": "CCCCC/C=C\\C/C=C\\C/C=C\\CCCCC(=O)O",
    "SYSTEM TESTED": "Rat GPR40 (Rattus norvegicus)",
    "VALUE REPORTED": 5.27
  },
  {
    "SMILES CODE": "CCCCCCCCCCCC(=O)O",
    "SYSTEM TESTED": "Rat GPR40 (Rattus norvegicus)",
    "VALUE REPORTED": 4.89
  },
  {
    "SMILES CODE": "CCCCCCCC/C=C/CCCCCCCC(=O)O",
    "SYSTEM TESTED": "Rat GPR40 (Rattus norvegicus)",
    "VALUE REPORTED": 4.96
  },
  {
    "SMILES CODE": "CCCCCCCCCCCCCCCC(=O)O",
    "SYSTEM TESTED": "Rat GPR40 (Rattus norvegicus)",
    "VALUE REPORTED": 5.18
  }
]
